biological target: Serotonin 3 (5-HT3) receptor (Rattus norvegicus, UniProt P35563+Q9JJ16); test: Rat 5-hydroxytryptamine 3 receptor (5-HT3) antagonist
Sequence (P35563 whole entry): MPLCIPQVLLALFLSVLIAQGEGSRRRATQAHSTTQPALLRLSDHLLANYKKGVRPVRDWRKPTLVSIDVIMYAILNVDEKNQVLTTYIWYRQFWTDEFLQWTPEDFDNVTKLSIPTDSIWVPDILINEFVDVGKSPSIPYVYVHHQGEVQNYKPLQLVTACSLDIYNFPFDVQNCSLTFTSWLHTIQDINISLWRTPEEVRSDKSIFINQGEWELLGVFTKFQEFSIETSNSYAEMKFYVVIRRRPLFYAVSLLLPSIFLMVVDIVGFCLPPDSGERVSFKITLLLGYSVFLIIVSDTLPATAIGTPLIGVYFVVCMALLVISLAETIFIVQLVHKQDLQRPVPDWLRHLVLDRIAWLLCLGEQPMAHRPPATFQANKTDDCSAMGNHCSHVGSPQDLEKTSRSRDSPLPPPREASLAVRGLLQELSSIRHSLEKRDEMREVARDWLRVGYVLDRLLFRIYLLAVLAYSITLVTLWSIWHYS
Sequence (Q9JJ16 whole entry): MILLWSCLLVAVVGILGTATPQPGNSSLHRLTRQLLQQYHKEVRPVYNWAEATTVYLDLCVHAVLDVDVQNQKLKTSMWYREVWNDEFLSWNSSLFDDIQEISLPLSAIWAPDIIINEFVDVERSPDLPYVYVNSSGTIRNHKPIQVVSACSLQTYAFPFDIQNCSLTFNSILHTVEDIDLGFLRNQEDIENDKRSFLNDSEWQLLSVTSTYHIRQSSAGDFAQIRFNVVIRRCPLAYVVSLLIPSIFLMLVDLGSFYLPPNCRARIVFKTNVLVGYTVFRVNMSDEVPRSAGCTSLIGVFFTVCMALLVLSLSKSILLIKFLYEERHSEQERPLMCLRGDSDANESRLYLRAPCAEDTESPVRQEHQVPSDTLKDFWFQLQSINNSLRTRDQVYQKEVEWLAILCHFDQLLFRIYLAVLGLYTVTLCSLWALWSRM
Would you kindly list Ki for each of these molecules?
Report the figure in nM without appending any unit label.

Give the measured Ki of CN1CCN(c2nc3ccccc3c3c2CSCC3)CC1 .
0.398

Give the measured Ki of c1ccc2c(c1)ccc1c(N3CCNCC3)nc3ccccc3c12 .
132

Give the measured Ki of CN1CCN(c2nc3ccccc3c3c2CCCC3)CC1 .
0.0977

Give the measured Ki of CN(C)CCSc1nc2ccccc2c2c1COc1ccccc1-2 .
10000

Give the measured Ki of CN(C)CCSc1nc2ccccc2c2c1CCc1ccccc1-2 .
10000

Give the measured Ki of CCN1CCN(c2nc3ccccc3c3c2cc(OC)c2ccccc23)CC1 .
224

Give the measured Ki of CN1CCN(c2nc3ccccc3c3c2CN(C)CC3)CC1 .
3.16

Give the measured Ki of CN1CCN(c2nc3ccccc3c3c2CCC3)CC1 .
0.0708

Give the measured Ki of c1ccc2c3c(c(N4CCNCC4)nc2c1)CCCC3 .
0.1

Give the measured Ki of CN(C)CCSc1nc2ccccc2c2c1ccc1ccccc12 .
10000

Give the measured Ki of COc1cc2c(SCCN(C)C)nc3ccccc3c2c2ccccc12 .
10000

Give the measured Ki of CCc1c(C)c(N2CCN(C)CC2)nc2ccccc12 .
0.537

The reported measurements were obtained from ChEMBL document CHEMBL1131507.
